TEST TARGET: D(3) dopamine receptor (Homo sapiens)
ASSAY DETAILS: qHTS of D3 Dopamine Receptor Antagonist: qHTS; note: % is set by controls: 0 for no effect and ±100 for the full control effect
MEASUREMENT CONDITIONS: D3R cells, DiscoveRx beta-arrestin luminescence, antagonist mode
In all, about 360,000 compounds went through this assay and about 9,100 (2.5%) were called active. Another 4% or so got no clear call; they are omitted. Cut-off read from the data, not from the text of the source: active = max response below about -50%; inconclusive = no clear call, values can overlap the other calls; inactive = above that. The sample holds actives, similar compounds and a random draw of the others, so the mix is not that of the screen.
Allowed answers: 1 (yes) (active), 0 (no) (inactive)

Exam item: Recorded test call requested for O=C1NC[C@H](CCCCN2C[C@H](Cc3ccccc3)N(Cc3ccccc3)C(=O)C2=O)N(CCc2ccc(O)cc2)C1=O
Marked response: 0 (no)

Exam item: Recorded test call requested for C#CCN(C[C@@H]1[C@@H](OC(=O)NC2CC2)[C@@H](OC(=O)NC2CC2)Cn2c(=O)ccc(=O)n21)S(=O)(=O)c1ccc(C)cc1
Marked response: 0 (no)

Exam item: Recorded test call requested for CCOC(=O)N1CCN(S(=O)(=O)c2ccc(OC)cc2)CC1
Marked response: 0 (no)

Exam item: Recorded test call requested for CCCCCC(=O)N1C[C@H](O)[C@@H](n2cc(COC(=O)c3ccccc3)nn2)C[C@@H]1c1ccc(C)cc1
Marked response: 0 (no)

Exam item: Recorded test call requested for CCOc1ccc(CN2CCN(Cc3c[nH]c4ccccc34)CC2)cc1
Marked response: 1 (yes)

Exam item: Recorded test call requested for COc1ccc(C(CNC(=O)c2cccc(S(=O)(=O)Nc3ccccc3Cl)c2)N2CCOCC2)cc1 (stereo not drawn)
Marked response: 0 (no)

Exam item: Recorded test call requested for CC1(C(=O)Nc2ccc3c(c2)OCCO3)CSCC(=O)N1CCOc1ccccc1 (stereo not drawn)
Marked response: 0 (no)

Exam item: Recorded test call requested for CCN1C(=NCc2ccc(OC)cc2)N[C@@H](CCc2ccccc2)[C@H](C(=O)NCc2ccc(OC)cc2)[C@H]1C
Marked response: 0 (no)

Exam item: Recorded test call requested for Cc1ccc(-c2nc3ccc(Br)cn3c2Cc2ccccc2C(F)(F)F)cc1
Marked response: 0 (no)

Exam item: Recorded test call requested for CCOc1ccc(CN2CCN(CCCc3ccccc3)C(CCO)C2)cc1 (stereo not drawn)
Marked response: 0 (no)

Exam item: Recorded test call requested for O=C(Nc1ccccc1)O/N=C1/CCCc2occc21
Marked response: 0 (no)

Exam item: Recorded test call requested for COc1ccccc1C(CNC(=O)c1cccc(S(=O)(=O)Nc2ccc(F)cc2)c1)N(C)C (stereo not drawn)
Marked response: 0 (no)

Exam item: Recorded test call requested for O=C(NC(c1ccc(-c2ccccc2)cc1)c1cnccn1)C1CCN(CCOc2ccc(Cl)cc2Cl)CC1 (stereo not drawn)
Marked response: 0 (no)

Exam item: Recorded test call requested for CCCCCOc1ccc(/C=C/C(=O)NCCc2nc3ccccc3[nH]2)cc1OC
Marked response: 0 (no)

Exam item: Recorded test call requested for CCN1C(=S)N[C@@H](CCc2ccccc2)[C@H](C(=O)OC)[C@H]1C
Marked response: 1 (yes)

Exam item: Recorded test call requested for Cc1cc(=O)[nH]c(SCC(N)=O)c1C#N
Marked response: 1 (yes)

Exam item: Recorded test call requested for COc1ccc(/C=C(\NC(=O)c2ccccc2)C(=O)NCCN2CCOCC2)cc1OC
Marked response: 0 (no)

Exam item: Recorded test call requested for CNc1cncc(-c2ccc(NS(C)(=O)=O)cc2)n1
Marked response: 0 (no)

Exam item: Recorded test call requested for COc1ccc(N)cc1NC(=O)CN1CCOCC1
Marked response: 0 (no)

Exam item: Recorded test call requested for COc1ccc(/C=C(/NC(=O)c2ccc(C)cc2)c2nc3ccccc3[nH]2)cc1OC
Marked response: 1 (yes)

Exam item: Recorded test call requested for COCCN1C(=O)N[C@@H](CCc2ccccc2)[C@H](C(C)=O)[C@H]1C
Marked response: 0 (no)

Exam item: Recorded test call requested for COc1ccc(C(CNC(=O)c2ccc(NS(=O)(=O)c3ccc(F)c(C)c3)cc2)N(C)C)cc1 (stereo not drawn)
Marked response: 0 (no)

Exam item: Recorded test call requested for CN(C)CCN1CCN(c2cc(-c3cccc(Cl)c3)nc3ccnn23)CC1
Marked response: 0 (no)

Exam item: Recorded test call requested for COc1ccc(C(CNC(=O)c2cccc(S(=O)(=O)Nc3ccc(Br)cc3)c2)N(C)C)cc1 (stereo not drawn)
Marked response: 1 (yes)

Exam item: Recorded test call requested for CCOC(=O)c1ccc(-c2ccc(C(=O)Nc3cccnc3)o2)cc1
Marked response: 0 (no)

Exam item: Recorded test call requested for Cc1cccc(CN2CCN(C3CN(Cc4ccccc4)S(=O)(=O)C3)CC2)c1 (stereo not drawn)
Marked response: 0 (no)

Exam item: Recorded test call requested for N/C(=N\OC(=O)Nc1ccccc1)c1ccno1
Marked response: 1 (yes)

Exam item: Recorded test call requested for CCCc1c(-c2ccccc2F)ncn1Cc1ccccc1OC
Marked response: 0 (no)

Exam item: Recorded test call requested for CCCC(=O)N1CCC1(C)C(=O)Nc1ccc(-n2cncn2)cc1 (stereo not drawn)
Marked response: 0 (no)

Exam item: Recorded test call requested for CN(C)C(CNC(=O)c1cccc(S(=O)(=O)N2CCc3ccccc3C2)c1)c1ccccc1 (stereo not drawn)
Marked response: 1 (yes)

Exam item: Recorded test call requested for COC(=O)C(Cc1c[nH]c2ccccc12)NC(=O)CCNC(=O)c1ccco1 (stereo not drawn)
Marked response: 0 (no)

Exam item: Recorded test call requested for Cc1ccc(C(=O)Nc2c(-c3ccccc3)[nH][nH]c2=O)cc1
Marked response: 0 (no)

Exam item: Recorded test call requested for CC(=O)Nc1cncc(-c2ccccc2CO)n1
Marked response: 0 (no)

Numbers sourced from PubChem BioAssay AID652054.
